- Target entity: human HDAC2 (Homo sapiens (Human))
- Sequence (Q92769 whole entry): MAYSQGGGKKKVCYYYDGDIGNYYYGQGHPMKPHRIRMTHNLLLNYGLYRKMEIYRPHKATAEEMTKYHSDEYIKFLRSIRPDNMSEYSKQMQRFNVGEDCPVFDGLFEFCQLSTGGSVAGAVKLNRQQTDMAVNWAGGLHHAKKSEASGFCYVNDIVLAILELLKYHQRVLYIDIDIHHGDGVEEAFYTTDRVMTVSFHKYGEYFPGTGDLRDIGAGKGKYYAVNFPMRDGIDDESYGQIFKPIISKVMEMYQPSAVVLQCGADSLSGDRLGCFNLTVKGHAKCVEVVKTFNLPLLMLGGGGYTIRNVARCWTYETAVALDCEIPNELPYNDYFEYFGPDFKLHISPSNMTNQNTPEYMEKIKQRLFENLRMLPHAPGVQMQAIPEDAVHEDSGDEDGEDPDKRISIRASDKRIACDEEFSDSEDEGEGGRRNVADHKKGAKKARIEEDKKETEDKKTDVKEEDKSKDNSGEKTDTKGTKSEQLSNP
- Procedure text: HDAC2 inhibition assay (modified FLUOR DE LYS, 384-well)
- Assay type: biochemical
- Test parameters: […] enzyme, 40 μM substrate BML-KI104, 3 h pre-incubation; read-out: HDAC2 IC50
pIC50: −log10 of the molar value.
Please note: 1 (yes) applies when pIC50 is 8 or greater, and 0 (no) applies otherwise.

[
  {
    "Smiles code": "CCN1CCC2(CC1)C[C@@H]2C(=O)N[C@@H](CCCCCC(=O)c1ncco1)c1ccn(-c2ccc3nn(C)cc3c2)n1",
    "Cat": "1 (yes)"
  },
  {
    "Smiles code": "CCn1ccc2cc(-c3cnc([C@H](CCCCCC(=O)c4ncco4)NC(=O)CN(C)C)[nH]3)c(OC)cc2c1=O",
    "Cat": "1 (yes)"
  },
  {
    "Smiles code": "CS(=O)(=O)c1ccc(-c2cnc([C@@H](N)CCCCCC(=O)c3ncco3)[nH]2)c(F)c1",
    "Cat": "0 (no)"
  }
]

----------
- Target entity: human HDAC8 (Homo sapiens (Human))
- Sequence (Q9BY41 whole entry): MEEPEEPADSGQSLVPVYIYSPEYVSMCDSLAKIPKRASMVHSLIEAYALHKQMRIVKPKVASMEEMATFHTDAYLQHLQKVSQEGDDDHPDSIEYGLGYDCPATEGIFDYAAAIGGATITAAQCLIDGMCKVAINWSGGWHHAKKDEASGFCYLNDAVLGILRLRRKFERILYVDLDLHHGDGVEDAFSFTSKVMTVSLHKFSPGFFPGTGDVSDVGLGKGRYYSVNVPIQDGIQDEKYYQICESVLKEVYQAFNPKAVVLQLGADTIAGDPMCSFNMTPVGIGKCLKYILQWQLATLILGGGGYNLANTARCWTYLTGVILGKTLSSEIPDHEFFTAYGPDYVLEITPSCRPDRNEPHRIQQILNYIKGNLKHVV
- Procedure text: HDAC8 inhibition assay (modified FLUOR DE LYS, 384-well)
- Type: biochemical
- Test parameters: […] nM enzyme, 200 μM substrate BML-KI178, 3 h pre-incubation; read-out: HDAC8 IC50

[
  {
    "Smiles code": "COc1cc2nc(C)ccc2cc1-c1cnc([C@@H](N)CCCCCC(=O)c2ncco2)o1",
    "IC50 (nM)": 1200
  },
  {
    "Smiles code": "CCN[C@@H](CCCCCC(=O)c1ncco1)c1ncc(-c2ccc3nc(C)ccc3c2)[nH]1",
    "IC50 (nM)": 4500
  },
  {
    "Smiles code": "COc1cc2nc(C)ccc2cc1-c1cnc([C@H](CCCCCC(=O)c2ncco2)NC(=O)C2CN(C)C2)[nH]1",
    "IC50 (nM)": 56
  }
]

----------
- Target entity: HDAC6 (Homo sapiens (Human), UniProt Q9UBN7)
- Sequence (Q9UBN7 whole entry): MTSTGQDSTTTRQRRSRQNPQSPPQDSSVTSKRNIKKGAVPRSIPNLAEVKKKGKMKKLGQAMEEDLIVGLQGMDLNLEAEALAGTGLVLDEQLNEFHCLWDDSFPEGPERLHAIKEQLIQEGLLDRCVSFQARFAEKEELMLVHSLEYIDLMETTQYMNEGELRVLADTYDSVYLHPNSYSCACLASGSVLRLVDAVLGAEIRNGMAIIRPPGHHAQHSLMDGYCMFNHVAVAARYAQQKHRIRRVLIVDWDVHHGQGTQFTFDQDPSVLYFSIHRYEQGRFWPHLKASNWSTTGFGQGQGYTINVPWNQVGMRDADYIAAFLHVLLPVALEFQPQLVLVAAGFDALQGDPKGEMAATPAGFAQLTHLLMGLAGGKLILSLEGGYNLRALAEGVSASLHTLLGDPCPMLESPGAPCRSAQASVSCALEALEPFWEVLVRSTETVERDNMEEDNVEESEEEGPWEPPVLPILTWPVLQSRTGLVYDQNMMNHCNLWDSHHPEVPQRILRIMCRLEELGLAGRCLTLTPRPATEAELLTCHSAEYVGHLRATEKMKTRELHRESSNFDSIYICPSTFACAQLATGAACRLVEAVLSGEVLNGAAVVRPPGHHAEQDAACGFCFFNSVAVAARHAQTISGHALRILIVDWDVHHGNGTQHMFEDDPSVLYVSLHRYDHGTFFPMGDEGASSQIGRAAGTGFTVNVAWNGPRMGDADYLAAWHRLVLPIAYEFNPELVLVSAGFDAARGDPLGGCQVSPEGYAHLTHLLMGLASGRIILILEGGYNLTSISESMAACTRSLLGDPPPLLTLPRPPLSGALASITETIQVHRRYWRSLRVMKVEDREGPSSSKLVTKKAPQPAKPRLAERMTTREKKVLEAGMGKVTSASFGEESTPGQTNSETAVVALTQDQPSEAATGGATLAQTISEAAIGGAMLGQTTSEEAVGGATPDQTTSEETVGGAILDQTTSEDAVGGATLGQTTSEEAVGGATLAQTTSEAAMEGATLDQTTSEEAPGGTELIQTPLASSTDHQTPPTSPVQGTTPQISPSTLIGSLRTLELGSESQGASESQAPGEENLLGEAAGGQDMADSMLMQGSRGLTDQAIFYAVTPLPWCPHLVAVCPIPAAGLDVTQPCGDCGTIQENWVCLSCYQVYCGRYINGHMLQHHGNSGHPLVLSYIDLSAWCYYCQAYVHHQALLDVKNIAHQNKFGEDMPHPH
- Procedure text: biochemical
Recorded IC50, one value per entry.

[
  {
    "Smiles code": "Cc1ccc2cc(-c3c[nH]c([C@H](CCCCCC(=O)c4ncco4)NCc4ccccc4)n3)ccc2n1",
    "IC50": "21000 nM"
  },
  {
    "Smiles code": "N[C@@H](CCCCCC(=O)c1ccon1)c1nc(Cl)c(-c2ccc(F)cc2)[nH]1",
    "IC50": "≥ 45000 nM"
  },
  {
    "Smiles code": "O=C1CC[C@@](CCCCCC(=O)c2ccon2)(c2nc(-c3ccccc3F)c[nH]2)N1",
    "IC50": "> 900 nM"
  },
  {
    "Smiles code": "COC(=O)N[C@@H](CCCCCC(=O)c1ncco1)c1ncc(-c2cc3ccc(C)nc3cc2OC)[nH]1",
    "IC50": "40 nM"
  },
  {
    "Smiles code": "N#Cc1nc(-c2ccc(F)cc2)oc1[C@@H](N)CCCCCC(=O)c1ncco1",
    "IC50": "≥ 45000 nM"
  },
  {
    "Smiles code": "O=C1CCCC[C@@](CCCCCC(=O)c2ccon2)(c2nc(-c3ccccc3F)c[nH]2)N1",
    "IC50": "> 900 nM"
  },
  {
    "Smiles code": "COc1nc2ccccc2cc1-c1cnc(CCCCCCC(=O)c2ncco2)[nH]1",
    "IC50": "2500 nM"
  },
  {
    "Smiles code": "COc1nc(C2CC2)ccc1-c1c[nH]c([C@@H](N)CCCCCC(=O)c2ncco2)n1",
    "IC50": "≥ 45000 nM"
  }
]
